- Test system: human SMAD7 mRNA
- Experiment summary: Antisense inhibition of human SMAD7 mRNA expression in Hep3B cells by 3-10-3 cEt gapmers, 10,000 nM, electroporation (Example 2)
- Type: cell-based
- Conditions used: Hep3B cells, 10,000 nM antisense oligonucleotide, electroporation, approximately 24 hours, RT-PCR primer probe set RTS5062, relative to untreated control cells
- Experimental: Antisense oligonucleotides were designed to target human SMAD7 mRNA and were tested for their effects on SMAD7 mRNA expression in vitro. […] After a treatment period of approximately 24 hours, RNA was isolated from the cells and SMAD7 mRNA levels were measured by quantitative real-time PCR. […] SMAD7 mRNA levels were adjusted according to total RNA content, as measured by RIBOGREEN®. […]
Strand notation (5' to 3'): a small letter for the sugar, then the base; units joined by * are phosphorothioate-linked, units joined directly phosphodiester-linked; [ ] holds rarer units or linkages, { } end groups; capitals alone tell only the bases. k = constrained ethyl (cEt); [5mC] = 5-methylcytosine; d = 2'-deoxy (DNA)
Recorded % Inhibition, one value per entry.
Write it as a number; the unit % goes unstated.

Query % Inhibition for 800089 (antisense kA*kG*kG*dA*dA*d[5mC]*d[5mC]*dT*dA*dT*d[5mC]*dT*dG*kG*kT*kA) [compound 800089] 0

Give me measured % Inhibition, please, for this substance: 799976 (kT*k[5mC]*kA*dA*dA*dG*dG*dT*dT*dA*dA*d[5mC]*dA*kG*k[5mC]*kA; antisense) [compound 799976] 34

Name the recorded % Inhibition of the item 772633 (kG*kG*kT*d[5mC]*dA*dT*dT*dG*dG*dG*d[5mC]*d[5mC]*dG*k[5mC]*kT*kG; antisense) [compound 772633] in your answer. 37
